Molecular target: SCRIB_1, Q14160
Sequence (Q14160 718-814): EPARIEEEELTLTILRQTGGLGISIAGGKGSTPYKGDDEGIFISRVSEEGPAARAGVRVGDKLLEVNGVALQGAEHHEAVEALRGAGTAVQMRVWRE
Test: holdup assay
Design: key: below the threshold = too weak to quantify, mostly under pKd 3.1 to 4
Conditions: plain residues with an end cap or a label only (N-terminal biotin on a linker: ado-ado)
The entries below come with measured pKd values attached.
Answer with the value's number alone.

Known pKd results, listed for orientation:
- Binder: "ETQVTAETVI [TMEM225B, P0DP42]"
  pKd: 4.24
- Binder: "TSQESEDTYL [TBC1D10A, Q9BXI6]"
  pKd: 3.99

Query string: # get_value(readout='pKd', item= KKMPSIESDV [GRIN2A, Q12879] )
Result string: 4.34

Query string: # get_value(readout='pKd', item= DDENIRTSDV [PLEKHA2, Q9HB19] )
Result string: 3.75

Query string: # get_value(readout='pKd', item= QGPVETESVV [SLC45A4, Q5BKX6] )
Result string: 3.72
